- SYSTEM_UNDER_TEST: T1, 4H347-AA
- T1 chain: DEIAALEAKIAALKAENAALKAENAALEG
- ASSAY_SUMMARY: two-hybrid library CCmax;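 further: natural log of median RNA to DNA barcode read ratio; higher means stronger binding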
- STATED_CONDITIONS: mean of both orientations
REPORTED_METRIC: interaction score

{"BINDER": "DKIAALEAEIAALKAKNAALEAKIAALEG [4H2165-AA]", "interaction score": -1.3}
{"BINDER": "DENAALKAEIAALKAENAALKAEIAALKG [4H1626-AA]", "interaction score": -1.66}
{"BINDER": "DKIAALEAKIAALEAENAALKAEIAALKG [4H2330-AA]", "interaction score": -0.642}
{"BINDER": "DKIAALKAKIAALKAKNAALEAENAALEG [4H2931-AA]", "interaction score": -1.41}

[a] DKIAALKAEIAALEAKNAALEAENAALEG [4H2611-AA]
[b] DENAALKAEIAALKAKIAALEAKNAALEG [4H1639-AA]
[c] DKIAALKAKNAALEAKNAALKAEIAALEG [4H3001-AA]
[d] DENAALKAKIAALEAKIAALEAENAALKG [4H1828-AA]
Data request: Sort entries by interaction score from minimum to maximum value. Present the labels in the sequence the task asks for.
Data returned: c, b, d, a
